Test system: CEM cells HIV-1 protection, formazan growth assay
Experiment: NCI AIDS Antiviral Assay
Details: measured here: growth of uninfected CEM cells
pIC50: −log10 of the molar value.
Listed below: pIC50 values for each entry.

- compound: "O=C1CCSC(=O)N1c1ccccc1"
  pIC50: "< 3.70"
- compound: "C=Cc1cncc(C#N)c1CCc1c(C#N)cncc1C=C"
  pIC50: "< 4.46"
- compound: "N#Cc1c(O)c2ccccc2[nH]c1=O"
  pIC50: "< 3.70"
- compound: "O=Nc1[nH]c(O)c2ccccc12"
  pIC50: "< 3.70"
- compound: "O=c1c(OS(=O)(=O)O)c(-c2ccc(OS(=O)(=O)O)cc2OS(=O)(=O)O)oc2cc(OS(=O)(=O)O)cc(OS(=O)(=O)O)c12"
  pIC50: "< 4.00"
- compound: "CC(C)(C)OC(=O)N1CCCC1=O"
  pIC50: "< 3.70"
- compound: "C/C(CC(=O)Nc1ccc(C)cc1C)=N/N=C(N)N"
  pIC50: "< 3.72"
- compound: "CCC12OCC(C)(C)N1OC(=O)N2c1ccccc1 (stereo not drawn)"
  pIC50: "< 3.70"
- compound: "N=C(CN1CCCCC1)N1CCCCC1"
  pIC50: "< 3.70"
- compound: "O=C1C2CC3OC3CC2C(=O)N1CCN1C(=O)C2CC3OC3CC2C1=O (stereo not drawn)"
  pIC50: "< 4.98"
- compound: "O=C(O)CSc1n[nH]c(Cc2ccccc2)n1"
  pIC50: "< 3.00"
- compound: "COC(=O)[C@H]1C=C[C@@H](C)n2c(=O)c3cc4ccccc4cc3c(=O)n21"
  pIC50: "< 4.67"
- compound: "O=C(Nc1ccccc1)c1cc2c(cc1Cl)Sc1nccn1S2(=O)=O"
  pIC50: "< 4.00"
